From: BindingDB's records for doi:10.1002/cmdc.202100576

Record type: pKi measurement. Applies to: UniProt P0C6X7
pKi: −log10 of the molar value.

compound	study-target	pKi
CC(C)C[C@H](NC(=O)[C@@H](NC(=O)OCc1ccccc1)C(C)OC(C)(C)C)C(=O)N[C@H](/C=C/C(=O)OC1CC1)C[C@@H]1CCNC1=O (stereo partly drawn)	UniProt P0C6X7	7.00
O=C(Oc1c(Cl)cc(Cl)cc1[N+](=O)[O-])c1cc(B(O)O)cc([N+](=O)[O-])c1	UniProt P0C6X7	5.16
CCOC(=O)/C=C/[C@@H](C[C@H]1CCNC1=O)NC(=O)[C@@H](CC(C)C)NC(=O)[C@H](NC(=O)OCc1ccccc1)C(C)OC(C)(C)C (stereo partly drawn)	UniProt P0C6X7	7.24
O=C(Oc1ccc(OC(=O)c2cc(B(O)O)cc([N+](=O)[O-])c2)cc1)c1cc(B(O)O)cc([N+](=O)[O-])c1	UniProt P0C6X7	5.17
O=C(O)c1cc(O)cc(B(O)O)c1	UniProt P0C6X7	5.46
Nc1cc(B(O)O)cc(C(=O)OCc2cccc(B(O)O)c2)c1	UniProt P0C6X7	5.46
O=C(Nc1ccc(NC(=O)c2cc(B(O)O)cc([N+](=O)[O-])c2)cc1)c1cc(B(O)O)cc([N+](=O)[O-])c1	UniProt P0C6X7	7.66
COC(=O)/C=C/[C@H](C[C@@H]1CCNC1=O)NC(=O)[C@H](CC(C)C)NC(=O)[C@@H](NC(=O)OCc1ccccc1)C(C)NC(=O)C(C)(C)C (stereo partly drawn)	UniProt P0C6X7	7.42
